# TARGET OR TEST SYSTEM: CCR1 (Homo sapiens, UniProt P32246)
# Sequence (P32246 whole entry): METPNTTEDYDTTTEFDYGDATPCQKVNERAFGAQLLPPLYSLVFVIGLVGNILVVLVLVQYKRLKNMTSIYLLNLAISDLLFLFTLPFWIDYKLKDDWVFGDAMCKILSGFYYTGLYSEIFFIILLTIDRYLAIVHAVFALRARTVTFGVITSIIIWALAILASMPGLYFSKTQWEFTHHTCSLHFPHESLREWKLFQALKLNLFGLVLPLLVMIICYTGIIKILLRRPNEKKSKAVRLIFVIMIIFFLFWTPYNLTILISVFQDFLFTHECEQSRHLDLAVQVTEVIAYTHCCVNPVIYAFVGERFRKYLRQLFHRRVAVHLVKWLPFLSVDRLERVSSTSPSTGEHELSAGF
# RUN DESCRIPTION: Method A: calcium flux in CCR1 transfected cells (Fluo-4 NW, FLIPR TETRA), block of the CCR1/MIP-1α interaction
# Assay type: cell-based
# MEASUREMENT PARAMETERS: Method A: Fluo-4 NW, MIP-1 alpha at EC80
OBSERVED PROPERTY: IC50

{"columns": ["COMPOUND", "MEASURED"],
 "data": [
  ["CC(C)NS(=O)(=O)Cc1ccc(CNC(=O)c2cncc3c2cnn3-c2ccc(F)cc2)cc1", "3 nM"],
  ["CNS(=O)(=O)c1ccc(CNC(=O)c2cncc3c2cnn3-c2ccc(F)cc2)cc1OC", "3 nM"],
  ["C=CC[C@@H](NC(=O)c1cncc2c1cnn2-c1ccc(F)cc1)c1ccnc(S(C)(=O)=O)c1", "1 nM"],
  ["CCCC(NC(=O)c1cncc2c1cnn2-c1ccc(F)cc1)c1cncc(S(=O)(=O)CCC(=O)OC)c1 (centres unmarked)", "3 nM"],
  ["O=C(NCc1cncc(Br)c1)c1cncc2c1cnn2-c1ccc(F)cc1", "13 nM"]
]}

The reported measurements were obtained from patent US8063065B2.
